molecular target: T1, human LILRA3 (human, UniProt Q8N6C8 24-439); assay: FACS, 293F-hLILRA3 cells
T1 construct: whole, on cells; also called hLILRA3
T1 sequence (Q8N6C8 24-439): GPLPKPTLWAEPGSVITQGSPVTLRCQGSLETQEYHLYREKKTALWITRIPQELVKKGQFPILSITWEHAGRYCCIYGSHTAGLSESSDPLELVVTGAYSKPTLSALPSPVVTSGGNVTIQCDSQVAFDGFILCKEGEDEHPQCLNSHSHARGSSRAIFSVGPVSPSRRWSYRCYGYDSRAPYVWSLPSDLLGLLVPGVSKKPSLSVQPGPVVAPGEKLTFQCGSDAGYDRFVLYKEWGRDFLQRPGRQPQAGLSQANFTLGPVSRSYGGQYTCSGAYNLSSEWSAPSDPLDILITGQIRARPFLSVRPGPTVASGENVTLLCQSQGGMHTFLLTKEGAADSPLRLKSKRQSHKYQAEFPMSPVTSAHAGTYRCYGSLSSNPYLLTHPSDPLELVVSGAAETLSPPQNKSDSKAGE
EXPERIMENTAL READOUT: MFI (MFI)
Response body: numeric value in MFI, unit text excluded.

Examples from the recorded data:
48-E11-H7-B5 (antibody, V domains shown, mouse monoclonal hybridoma antibody) VH: EVQLVESGGGLVKPGGSLKLSCAASGFTFSSYAMSWVRQTPEKRLEWVASITIGDDTYYPDSVKGRFTISRDHAKNILYLQVSSLRSEDTAMYSCARGVNSYGSSYRYFDVWGAGTTVTVSS VL: DIVMTQSHKFMSTSVGDRVSITCKASQDVSTAVAWYQQKPGQSPKLLIYWASTRHTGVPDRFTGSGSGTDYTLTISSVQAEDLALYYCQQHYSIPFTFGAGTKLEK :: 24.1
4-E6-E4-B12 (antibody, V domains shown, mouse monoclonal hybridoma antibody) VH: EVQLKESGAELVKPGASVKLSCKASGYTFTSHWMHWVKQRPGQGLEWIGEINPSNGRTNYNEKFTSKATLTVDQSSSTAYMQLSSLTSEDSAVYYCARGNLTTVVPFDYWGQGTALTVSS VL: DIVMTQSPSSLSASLGGKVTITCKASQDINKFIAWYQHKPGKGPRLLIHFTSTLQPGIPSRFSGSGSGRDYSFSISNLEPEDIATYFCLQYDLLLTFGGGTKLEIK :: 23.7

Field: next binder
Inquiry: // returns reported MFI for input 26-H9-B9-B7 (antibody, V domains shown, mouse monoclonal hybridoma antibody) VH: EVQRVESGGGLVQPGGSRKLSCAASGFTFSSFGMHWVRQAPEKGLEWVAYISSGSSTIYYADTVKGRFTISRDNPKNTLFLQMTSLRSEDTAMYYCARSDGKGAMDYWGQGTSVTVSS VL: DIVMTQSTSSLSASLGDRVTISCRASQDISNYLNWYQQKPDGTVKLLIYYTSRLHSGVPSRFSGSGSGTDYSLTISNLEQEDIATYFCQQGNTLPWTFGGGTKLEIK
Reply text: 19.1
